B1: HDV Ribozyme (parent)
chain: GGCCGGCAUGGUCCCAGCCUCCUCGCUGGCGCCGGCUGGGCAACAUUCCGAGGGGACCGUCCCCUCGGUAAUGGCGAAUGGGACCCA

Variants of: B1
Protocol summary: self-cleavage, relative activity (ratio to wild type); higher = more cleavage; co-transcriptional
Measurement label: self-cleavage

C44A G81U = 0.203
G55U C85A = 1.09
G39C U60A = 0.481
G29A C84U = 0.133
G1C G74A = 0.0678
G1A C19A = 0.0744
C21A U69C = 0.0426
G11A U27G = 0.359
C3G C33A = 0.0817
G17U C44A = 0.323
C21U G50C = 0.115
C22U C57U = 0.817
G38C G39A = 0.113
G35C U37G = 0.0504
U9C C44U = 0.739
A16U G59U = 0.966
C49G A83C = 0.403
C44G U47G = 0.475
